experiment: Particle size of the lipid nanoparticle (dynamic light scattering, Malvern Zetasizer); format: physicochemical; conditions: Table 5; PLK1-424 siRNA LNP; Chol/DSPC/stealth lipid S010, 45/44/9/2; Z-average
OUTCOME_MEASURE: Size (nm)

MOLECULE | Size (nm)
CCCCC/C=C\C/C=C\CCCCCCCC(=O)OCCCCOc1cc(CN(C)C)cc(OCCCCOC(=O)CCCCCCC/C=C\C/C=C\CCCCC)c1 [Example 38] | 116.8 nm
CCCCCCCCCC(=O)OCCCCCCCCOc1cc(CN(C)C)cc(OCCCCCCCCOC(=O)CCCCCCCCC)c1 [Example 52] | 132.2 nm
CCCCC/C=C\C/C=C\CCCCCCCC(=O)OCCCOc1cc(CN(C)C)cc(OCCCOC(=O)CCCCCCC/C=C\C/C=C\CCCCC)c1 [Example 39] | 114.3 nm
CCCCCCCC(=O)OCCCCCCCCOc1cc(CN(C)C)cc(OCCCCCCCCOC(=O)CCCCCCC)c1 [Example 42] | 181.1 nm

Attention now shifts to the item below.
Challenge: Requested read-out: Size (nm). Entry: CCCCCCCC(=O)OCCCCCCCCCCOc1cc(CN(C)C)cc(OCCCCCCCCCCOC(=O)CCCCCCC)c1 [Example 43]
Response given: 150.7 nm
